Measured MIC, listed per entry.
system: Staphylococcus aureus; experiment: Antibacterial activity against methicillin-resistant Staphylococcus aureus N315 after 24 hrs by microdilution method; type: functional; settings: N315, 24 h

{"columns": ["Entry Smiles", "MIC / µg/mL"],
 "data": [
  ["CCOc1ccc(CCC(=O)O[C@H]2[C@H](Oc3c(-c4ccc(O)c(O)c4)oc4cc(O)cc(O)c4c3=O)O[C@H](CO)[C@@H](O)[C@@H]2OC(=O)CCc2ccc(OCC)cc2)cc1", 1],
  ["CCCc1ccc(C(=O)OC[C@H]2O[C@@H](Oc3c(-c4ccc(O)c(O)c4)oc4cc(O)cc(O)c4c3=O)[C@H](OC(=O)c3ccc(CCC)cc3)[C@@H](O)[C@H]2O)cc1", 2],
  ["O=C(O[C@H]1[C@H](Oc2c(-c3ccc(O)c(O)c3)oc3cc(O)cc(O)c3c2=O)O[C@H](CO)[C@@H](O)[C@@H]1OC(=O)c1ccc(F)cc1)c1ccc(F)cc1", 1],
  ["O=C(Cc1ccc(F)cc1)OC[C@H]1O[C@@H](Oc2c(-c3ccc(O)c(O)c3)oc3cc(O)cc(O)c3c2=O)[C@H](OC(=O)Cc2ccc(F)cc2)[C@@H](O)[C@H]1O", 1],
  ["CCOc1ccc(C(=O)O[C@H]2[C@H](Oc3c(-c4ccc(O)c(O)c4)oc4cc(O)cc(O)c4c3=O)O[C@H](CO)[C@@H](O)[C@@H]2OC(=O)c2ccc(OCC)cc2)cc1", 1]
]}
